- systemTested: Coagulation factor IX (Homo sapiens)
- assayProcedure: Inhibition of human factor 9a assessed as residual activity at 500 uM by spectrophotometric assay
observedProperty: Activity (%)

- CCOC(=O)c1c(COc2cc3c(C(=O)OCC)coc3cc2OC)[nH]c2ccc(OS(=O)(=O)O)cc12: 98
- CCOC(=O)c1c(COc2cc3c(C(=O)OCC)c(Cc4ccccc4)oc3cc2OC)[nH]c2ccc(OS(=O)(=O)O)cc12: 98
- CCOC(=O)c1c(Cc2ccccc2)oc2cc(OC)c(OCc3nc4ccc(OS(=O)(=O)O)cc4s3)cc12: 90
- CCOC(=O)c1c(C)[nH]c2ccc(OCc3c(C(=O)OCC)c4cc(OS(=O)(=O)O)ccc4n3C(=O)OC(C)(C)C)cc12: 98
- Cc1nc2ccc(OCc3nc4ccc(OS(=O)(=O)O)cc4s3)cc2s1: 110
- CCOC(=O)c1c(COc2cc3c(C(=O)OCC)c(COc4cc5c(C(=O)OCC)c(C)oc5cc4OC)oc3cc2OC)[nH]c2ccc(OS(=O)(=O)O)cc12: 109
- CCOC(=O)c1c(C)[nH]c2ccc(OS(=O)(=O)O)cc12: 98
- CCOC(=O)c1c(C)oc2cc(OC)c(OCc3oc4cc(OC)c(OCc5nc6ccc(OS(=O)(=O)O)cc6s5)cc4c3C(=O)OCC)cc12: 82
- COc1cc2occ(C(=O)OC(C)(C)C)c2cc1OCc1nc2ccc(OS(=O)(=O)O)cc2s1: 101
- Cc1nc2ccc(OS(=O)(=O)O)cc2s1: 94
